biological target: Serine/threonine-protein kinase mTOR (Homo sapiens, UniProt P42345); experiment: Inhibition of mTOR (unknown origin) at 0.5 uM relative to control
Test Readout: inhibition
Could you give the number and then its unit, please?

Which measured inhibition value corresponds to `O=C(NO)c1ccc(-c2nc(N3CCSCC3)c3ccc(Cl)cc3n2)cc1` ?
44.9%

// lookup inhibition for `O=C(NO)c1ccc(-c2nc(N3CCCCC3)c3ccc(Cl)cc3n2)cc1`
14.9%

Which inhibition value is on record for `COc1cc(OC)c2c(N3CCSCC3)nc(-c3ccc(C(=O)NO)cc3)nc2c1` ?
33.8%

What does the record list as inhibition for `CN1CCN(c2nc(-c3ccc(C(=O)NO)cc3)nc3ccccc23)CC1` ?
76.8%

Form field: reported inhibition of `COc1cc(OC)c2c(N3CCOC[C@@H]3C)nc(-c3ccc(C(=O)NO)cc3)nc2c1`
55.4%

Which inhibition reading was recorded for the compound `O=C(NO)c1ccc(-c2nc(N3CCOCC3)c3ccc(Cl)cc3n2)cc1` ?
75.5%

Query (compound): `O=C(NO)c1ccc(-c2nc(N3CCS(=O)(=O)CC3)c3ccccc3n2)cc1` ; field requested: inhibition
37.4%

# get_value(readout='inhibition', item= `C[C@@H]1COCCN1c1nc(-c2ccc(C(=O)NO)cc2)nc2cc(Cl)ccc12` )
78.8%

Name the recorded inhibition for `COc1cc(OC)c2c(N3CCCC3)nc(-c3ccc(C(=O)NO)cc3)nc2c1` .
9.7%

Using the record for `O=C(NO)c1ccc(-c2nc(N3CCCC3)c3ccccc3n2)cc1` , report its inhibition.
11.3%

Record request: inhibition value, item `C[C@H]1COCCN1c1nc(-c2ccc(C(=O)NO)cc2)nc2cc(Cl)ccc12`
82.3%

Would you kindly share the measured inhibition for `O=C(NO)c1ccc(-c2nc(N3CCC(F)(F)CC3)c3ccccc3n2)cc1` ?
18.4%

Which inhibition value belongs to `C[C@H]1COCCN1c1nc(-c2ccc(C(=O)NO)cc2)nc2ccccc12` ?
67.3%

Using the record for `O=C(NO)c1ccc(-c2nc(N3CCC(F)(F)CC3)c3ccc(Cl)cc3n2)cc1` , report its inhibition.
18.2%

For the compound `COc1cc(OC)c2c(N3CCOCC3)nc(-c3ccc(C(=O)NO)cc3)nc2c1` , what inhibition is on record?
48.9%

Look up inhibition for this compound: `O=C(NO)c1ccc(-c2nc(N3CCCC3)c3ccc(Cl)cc3n2)cc1`
18.3%

Which inhibition is listed for `COc1cc(OC)c2c(N3CCCCC3)nc(-c3ccc(C(=O)NO)cc3)nc2c1` ?
11.5%

Entry under review: `COc1cc(OC)c2c(N3CCN(C)CC3)nc(-c3ccc(C(=O)NO)cc3)nc2c1` . Reported inhibition?
67.6%

# inhibition lookup, item `O=C(NO)c1ccc(-c2nc(N3CCSCC3)c3ccccc3n2)cc1`
44.7%

// inhibition lookup, key: `Cn1c(=O)n(-c2ccc(C(C)(C)C#N)cc2)c2c3cc(-c4cnc5ccccc5c4)ccc3ncc21`
95.4%

Would you kindly share the measured inhibition for `C[C@@H]1COCCN1c1nc(-c2ccc(C(=O)NO)cc2)nc2ccccc12` ?
68.5%
